# Tested on: BT-549 breast
# method description: NCI-60 one-dose screen, 48 h (100 = growth as untreated, 0 = no growth, -100 = all killed)
# condition context: 10 µM unless noted
The panel holds about 83,000 compounds, 20% with a hit somewhere; the sample as a whole holds those more often.
assay endpoint: growth (%)

O=C(/C=C/c1ccc(F)cc1)Nc1cccc2cccnc12    115
CC1(C)CC[C@]23CC[C@]4(C)[C@H](CC[C@@H]5[C@@]6(C)CC[C@H](NCO)C(C)(C)[C@@H]6CC[C@]54C)[C@H]2[C@H]1OC3    98.5
O=C(CCCCCCNC(=O)C(O)(O)C(F)(F)F)Nc1ccc(-c2ccccc2)cc1    14.8
CCN(CC)c1ccc(/C=N/NC(=O)c2ccc(S(N)(=O)=O)cc2)c(O)c1    26.5
COc1ccc2c(c1)C=CC1(O2)Oc2ccc(OC)cc2C=C1C (centres undefined)    26.5
CN1CCN(Cc2ccc(NC(=O)c3cncc(C#Cc4cnc5ccc(OCC(F)F)nn45)c3)cc2C(F)(F)F)CC1    -16.6
CCCCc1nc2c(N)nc3ccccc3c2n1Cc1cccc(CN)c1    28.1
CN(C)c1ccc(-c2cc(-c3c[nH]c4ccccc34)nc(N)c2C#N)cc1    27.8
Cn1cc(C2=C(c3coc4cc(Br)ccc34)C(=O)NC2=O)c2ccccc21    82.6
